Reported inhibition values are given for each entry in this list.
measurement target: Serine/threonine-protein kinase PAK 3 (Homo sapiens) (UniProt O75914);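 further: reported percentage is a mean inhibition value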
Sequence (O75914 whole entry, looked up): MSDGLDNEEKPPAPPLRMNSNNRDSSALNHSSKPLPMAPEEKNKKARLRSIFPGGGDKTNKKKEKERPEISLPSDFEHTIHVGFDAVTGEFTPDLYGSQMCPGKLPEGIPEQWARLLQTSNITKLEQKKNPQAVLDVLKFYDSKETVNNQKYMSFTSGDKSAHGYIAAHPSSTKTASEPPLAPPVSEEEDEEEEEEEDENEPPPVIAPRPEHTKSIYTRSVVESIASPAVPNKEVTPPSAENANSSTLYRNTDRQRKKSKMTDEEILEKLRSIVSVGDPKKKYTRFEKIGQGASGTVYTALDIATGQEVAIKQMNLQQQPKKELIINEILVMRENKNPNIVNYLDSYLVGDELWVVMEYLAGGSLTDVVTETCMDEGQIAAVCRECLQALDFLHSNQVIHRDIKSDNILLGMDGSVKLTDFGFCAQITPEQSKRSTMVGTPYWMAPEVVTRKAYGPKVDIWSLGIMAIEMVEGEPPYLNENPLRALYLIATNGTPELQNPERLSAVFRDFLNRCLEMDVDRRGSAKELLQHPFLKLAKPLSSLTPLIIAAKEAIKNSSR
assay conditions: at 1 µM
property name: inhibition (%)

{"columns": ["structure", "property name", "unit abbrev", "measured"],
 "data": [
  ["FC(F)(F)c1cccc(-c2nn3ncccc3c2-c2ccnc(Nc3ccc4c(c3)OCCO4)n2)c1", "inhibition", "%", 2.03],
  ["CCN1CCC(CC(=O)Nc2n[nH]c3nnc(-c4cccc(F)c4F)cc23)CC1", "inhibition", "%", 1.02],
  ["CCn1cc(-c2ccnc3[nH]ccc23)c(-c2cccc(NC(=O)Nc3ccc(OCc4ccccc4)cc3)c2)n1", "inhibition", "%", 1.28],
  ["COc1cc(Nc2nccc(Nc3ccc4c(C)n[nH]c4c3)n2)cc(OC)c1OC", "inhibition", "%", 5.23]
]}

###

Each entry below carries its reported inhibition.
measurement target: Serine/threonine-protein kinase 26 (Homo sapiens);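 further: mean inhibition of MST4 kinase activity, reported from the GSK PKIS inhibitor-set screening panel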
assay conditions: at 1 µM

{"columns": ["structure", "unit abbrev", "inhibition"],
 "data": [
  ["CN(C)CCOc1ccc(-c2nc(-c3ccncc3)c(-c3ccc4c(c3)CC/C4=N\\O)[nH]2)cc1", "%", -0.6],
  ["COc1ccc(CNC(=O)c2ccc(-c3cc(-c4nnc(C)o4)ccc3C)cc2)cc1", "%", 4.31],
  ["CCn1c(-c2nonc2N)nc2cnc(Oc3cccc(NC(=O)c4ccc(N(C)C)cc4)c3)cc21", "%", 0.84],
  ["COc1cc2ncn(-c3cc(OCc4ccccc4C(F)(F)F)c(C(=O)N(C)C)s3)c2cc1OC", "%", 3.36],
  ["FC(F)(F)c1cccc(-c2nn3ncccc3c2-c2ccnc(Nc3ccc4c(c3)OCCO4)n2)c1", "%", 0.56]
]}

###

measurement target: ALK tyrosine kinase receptor (Homo sapiens);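 further: values are mean percent inhibition of ALK, screened as part of the GSK PKIS panel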
assay conditions: at 1 µM

{"columns": ["structure", "measurement target", "inhibition [%]"],
 "data": [
  ["CCn1c(-c2nonc2N)nc2cnc(Oc3cccc(NC(=O)c4ccc(N(C)C)cc4)c3)cc21", "ALK tyrosine kinase receptor (Homo sapiens)", 1.96],
  ["CN1CCC(n2cnc(-c3ccc(F)cc3)c2-c2ccnc(N)n2)CC1", "ALK tyrosine kinase receptor (Homo sapiens)", 4.21],
  ["COc1ccc(-c2cc(-c3c[nH]nc3-c3ccccn3)ccn2)cc1", "ALK tyrosine kinase receptor (Homo sapiens)", 5.23],
  ["N#Cc1c(NC(=O)CN2CCOCC2)sc2c1CCCC2", "ALK tyrosine kinase receptor (Homo sapiens)", 8.62],
  ["COc1ccc(-c2oc3ncnc(N)c3c2-c2ccc(NC(=O)Nc3cc(C(F)(F)F)ccc3F)cc2)cc1", "ALK tyrosine kinase receptor (Homo sapiens)", 8.5],
  ["c1cc(-c2cnn3nc(N4CCOCC4)ccc23)nc(NC2CC2)n1", "ALK tyrosine kinase receptor (Homo sapiens)", 9.86],
  ["CCNC(=O)O[C@H]1CN[C@H](C#Cc2cc3ncnc(Nc4ccc(OCc5cccc(F)c5)c(Cl)c4)c3s2)C1", "ALK tyrosine kinase receptor (Homo sapiens)", 4.55],
  ["O=C(O[C@H]1CN[C@H](C#Cc2cc3ncnc(Nc4ccc(Cc5ccccc5)cc4)c3s2)C1)N1CCOCC1", "ALK tyrosine kinase receptor (Homo sapiens)", 0.46],
  ["CC(C)COC(=O)c1ccc2c(c1)/C(=C/Nc1ccc(S(N)(=O)=O)cc1)C(=O)N2", "ALK tyrosine kinase receptor (Homo sapiens)", 4.93]
]}

###

Measured inhibition of individual entries
System: Tyrosine-protein kinase ABL1 (Homo sapiens), P00519 [T315I]
assay conditions: at 1 µM

{"columns": ["compound", "inhibition, %"],
 "data": [
  ["CN1CCC(n2cnc(-c3ccc(F)cc3)c2-c2ccnc(Nc3ccccc3)n2)CC1", 4.98],
  ["Nc1nc(-c2cccc(Cl)c2)c(-c2ccc3ncccc3n2)s1", 7.84],
  ["Fc1ccc(-c2nn3ccccc3c2-c2ccncc2)cc1", 4.09],
  ["Cc1cccc(Nc2ncc(-c3ccccc3)o2)c1", 5.99],
  ["CC1=C(C(=O)Nc2cc(Cl)c3[nH]ncc3c2)C(c2ccc(C(F)(F)F)cc2)CC(=O)N1 (stereo not given)", 3.3],
  ["COc1ccc2[nH]c3c4[nH]c5ccc(OC)cc5c4c4c(c3c2c1)C(=O)NC4=O", 33.7],
  ["COc1ccc(-c2cc(-c3c[nH]nc3-c3ccccn3)ccn2)cc1", 5.41],
  ["COc1cc2c(cc1Nc1nc(Nc3ccsc3C(N)=O)c3cc[nH]c3n1)N(C(=O)CN(C)C)CCC2(C)C", 3.95],
  ["CC(C)(CO)CNC(=O)c1ccc2c(c1)/C(=N/Nc1ccc(S(N)(=O)=O)cc1)C(=O)N2", 8.62],
  ["CCn1c(-c2nonc2N)nc2c(C#CC(C)(C)O)nc(OC[C@H](N)c3ccccc3)cc21", 7.77]
]}

###

Below, each of the compounds is paired with its reported inhibition value.
measurement target: Mitogen-activated protein kinase 1 (Homo sapiens);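 further: reported figure is an averaged percent inhibition of the kinase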
assay conditions: at 0.1 µM
property name: inhibition

{"columns": ["structure", "measured"],
 "data": [
  ["COc1ccc(-c2nn3ncccc3c2-c2ccnc(Nc3ccc4c(c3)OCCO4)n2)cc1", "-0.01%"],
  ["CN1CCC(n2cnc(-c3ccc(F)cc3)c2-c2ccnc(Nc3ccccc3)n2)CC1", "2.4%"],
  ["CCn1c(-c2nonc2N)nc2c(C#CC(C)(C)O)nc(OC[C@H](N)c3ccccc3)cc21", "2.37%"],
  ["CC(=O)NCc1cccc(C#Cc2cncnc2Nc2ccc(OCc3cccc(F)c3)c(Cl)c2)c1", "0.71%"],
  ["Fc1ccc(-c2nn3ncccc3c2-c2ccnc(Nc3ccc4c(c3)OCCO4)n2)cc1", "2.51%"]
]}

###

System: Platelet-derived growth factor receptor alpha (Homo sapiens), P16234 [V561D]
Sequence (P16234 whole entry V561D): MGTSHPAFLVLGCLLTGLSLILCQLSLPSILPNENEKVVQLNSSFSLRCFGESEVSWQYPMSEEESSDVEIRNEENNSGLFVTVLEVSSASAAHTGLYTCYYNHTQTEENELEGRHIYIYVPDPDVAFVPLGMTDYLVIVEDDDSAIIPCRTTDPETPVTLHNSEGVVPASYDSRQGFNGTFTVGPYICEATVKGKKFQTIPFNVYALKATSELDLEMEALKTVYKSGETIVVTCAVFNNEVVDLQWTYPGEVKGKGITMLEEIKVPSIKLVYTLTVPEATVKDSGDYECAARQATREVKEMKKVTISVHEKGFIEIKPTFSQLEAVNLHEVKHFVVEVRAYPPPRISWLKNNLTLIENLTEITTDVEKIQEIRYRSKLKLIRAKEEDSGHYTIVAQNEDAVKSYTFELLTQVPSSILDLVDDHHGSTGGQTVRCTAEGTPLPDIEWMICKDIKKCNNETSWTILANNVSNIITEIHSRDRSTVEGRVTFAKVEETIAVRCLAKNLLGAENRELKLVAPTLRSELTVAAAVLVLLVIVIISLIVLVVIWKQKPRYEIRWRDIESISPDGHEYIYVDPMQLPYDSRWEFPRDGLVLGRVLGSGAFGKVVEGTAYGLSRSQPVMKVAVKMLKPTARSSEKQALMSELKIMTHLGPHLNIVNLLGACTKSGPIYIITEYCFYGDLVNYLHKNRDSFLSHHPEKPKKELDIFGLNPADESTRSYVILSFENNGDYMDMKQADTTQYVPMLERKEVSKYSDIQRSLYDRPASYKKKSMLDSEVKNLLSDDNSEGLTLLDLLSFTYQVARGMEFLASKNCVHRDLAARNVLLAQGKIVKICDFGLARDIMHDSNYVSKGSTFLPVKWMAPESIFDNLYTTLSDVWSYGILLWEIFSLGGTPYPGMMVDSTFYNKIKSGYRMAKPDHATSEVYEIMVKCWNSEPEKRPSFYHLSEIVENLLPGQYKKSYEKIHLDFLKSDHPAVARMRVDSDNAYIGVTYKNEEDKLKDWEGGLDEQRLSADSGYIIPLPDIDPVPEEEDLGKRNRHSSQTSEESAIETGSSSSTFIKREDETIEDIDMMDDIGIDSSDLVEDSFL
assay conditions: at 1 µM
Threshold rule: inhibition greater than or equal to 10% is 1; below that, 0.

{"columns": ["structure", "category"],
 "data": [
  ["CCCN1CCC(c2ccc(Nc3nc(Nc4cc(F)ccc4C(N)=O)c4cc[nH]c4n3)c(OC)c2)CC1", 1],
  ["Cc1ccc(O)cc1Nc1ccnc2cc(-c3ccccn3)ccc12", 1],
  ["Fc1ccc(-c2nn3ncccc3c2-c2ccnc(Nc3ccc4c(c3)OCCO4)n2)cc1", 1],
  ["CS(=O)(=O)CCNCc1ccc(-c2ccc3ncnc(Nc4ccc(OCc5ccccc5)c(C(F)(F)F)c4)c3c2)o1", 0],
  ["CCn1c(-c2nonc2N)nc2c(C#CC(C)(C)O)ncc(OC3CCNCC3)c21", 1],
  ["CCOc1ccc2c(-c3ccnc(Nc4cccc(C(F)(F)F)c4)n3)cnn2n1", 1],
  ["CCNC(=O)O[C@H]1CN[C@H](C#Cc2cc3ncnc(Nc4ccc(OCc5cccc(F)c5)c(Cl)c4)c3s2)C1", 0],
  ["CCCN(CCS(C)(=O)=O)Cc1ccc(-c2ccc3ncnc(Nc4ccc(OCc5cccc(F)c5)c(Cl)c4)c3c2)o1", 0],
  ["O=C(Nc1n[nH]c2cc(-c3ccc(F)cc3)ccc12)C1CC1", 1],
  ["Cc1cccc(Nc2ncc(-c3ccccc3)o2)c1", 1],
  ["N#Cc1c(NC(=O)CN2CCOCC2)sc2c1CCCC2", 0],
  ["CC(C)(CO)CNC(=O)c1ccc2c(c1)/C(=N/Nc1ccc(S(N)(=O)=O)cc1)C(=O)N2", 1],
  ["COC(=O)Nc1nc2ccc(Oc3ccc(NC(=O)Nc4cccc(Cl)c4)cc3)cc2[nH]1", 1],
  ["CN1CCC(n2cnc(-c3ccc(F)cc3)c2-c2ccnc(N)n2)CC1", 1],
  ["CC(=O)NCc1cccc(C#Cc2cncnc2Nc2ccc(OCc3cccc(F)c3)c(Cl)c2)c1", 0],
  ["CS(=O)(=O)CCNCc1coc(-c2ccc3ncnc(Nc4ccc(OCc5ccccc5)cc4)c3c2)c1", 1],
  ["Clc1ccc(-c2nn3ncccc3c2-c2ccnc(Nc3ccccc3)n2)cc1", 1],
  ["COc1ccc(-c2cc3c(N)ncnc3o2)cc1", 1],
  ["CC(=O)Nc1cccc(C#Cc2cncnc2Nc2ccc(OCc3cccc(F)c3)c(Cl)c2)c1", 0],
  ["Fc1ccc(-c2cc(-c3c[nH]nc3-c3ccccn3)ccn2)cc1", 1],
  ["Fc1cccc(COc2ccc(Nc3ncnc4sc(-c5ccco5)cc34)cc2Cl)c1", 0],
  ["CCn1c(-c2nonc2N)nc2c(C#CC(C)(C)O)nc(OC[C@H](N)c3ccccc3)cc21", 1],
  ["c1cc(-c2cnn3nc(N4CCOCC4)ccc23)nc(NC2CC2)n1", 1],
  ["COc1ccc2[nH]c3c4[nH]c5ccc(OC)cc5c4c4c(c3c2c1)C(=O)NC4=O", 1]
]}

###

measurement target: Leukocyte tyrosine kinase receptor (Homo sapiens);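 further: each value is the mean inhibition of LTK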
assay conditions: at 1 µM

{"columns": ["structure", "unit abbrev", "inhibition"],
 "data": [
  ["c1cc(-c2cnn3nc(N4CCOCC4)ccc23)nc(NC2CC2)n1", "%", 6.33],
  ["O=C(Nc1n[nH]c2cc(-c3ccc(F)cc3)ccc12)C1CC1", "%", 2.75],
  ["COc1cc2c(cc1Nc1nc(Nc3ccsc3C(N)=O)c3cc[nH]c3n1)N(C(=O)CN(C)C)CCC2(C)C", "%", 96.3],
  ["CCN1CCC(CC(=O)Nc2n[nH]c3nnc(-c4cccc(F)c4F)cc23)CC1", "%", 1.45],
  ["COc1ccc(-c2oc3ncnc(N)c3c2-c2ccc(NC(=O)Nc3cc(C(F)(F)F)ccc3F)cc2)cc1", "%", 11.2],
  ["Fc1ccc(-c2nn3ncccc3c2-c2ccnc(Nc3ccc4c(c3)OCCO4)n2)cc1", "%", 5.5],
  ["CCN(CC)S(=O)(=O)c1ccc(OC)c(Nc2ncc(-c3ccccc3)o2)c1", "%", -0.4],
  ["Fc1cccc(COc2ccc(Nc3ncnc4sc(-c5ccco5)cc34)cc2Cl)c1", "%", 4.08],
  ["Cc1ccc(O)cc1Nc1ccnc2cc(-c3ccccn3)ccc12", "%", 49.7],
  ["CC(C)(CO)CNC(=O)c1ccc2c(c1)/C(=N/Nc1ccc(S(N)(=O)=O)cc1)C(=O)N2", "%", -1.87]
]}

Cited source: ChEMBL document CHEMBL1961873
